# credit: the supplement of paper PMC10567573

B1: PPP2R2C (parent)
chain: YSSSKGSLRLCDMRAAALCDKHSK

Variants of: B1
assay-summary: protein stability index of a GFP-peptide fusion (GPS, HEK-293T) (PSI 1-6); higher = more stable;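 further: lentivirally expressed fusions sorted by FACS into six bins by GFP to DsRed ratio, PSI derived from sequencing read proportions per bin multiplied by bin number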
condition-info: c terminus: a fixed tail appended
Decision: protein stability index >= 2 yields class 1, all other cases yield class 0.

Worked set:
{"sequence-record": "YSSSKGELRLCDMRAAALCDKHSK", "label": "class 0"}
{"sequence-record": "YSSSKGSLRLCDMRAAALWDKHSK", "label": "class 0"}
{"sequence-record": "YSSSKGSLCLCDMRAAALCDKHSK", "label": "class 1"}
{"sequence-record": "YSSSKGSLRLLDMRAAALCDKHSK", "label": "class 1"}
{"sequence-record": "YSSSKGSLRLCDMLAAALCDKHSK", "label": "class 1"}
{"sequence-record": "YSSSKGSLRQCDMRAAALCDKHSK", "label": "class 1"}
{"sequence-record": "YSPSKGSLRLCDMRAAALCDKHSK", "label": "class 1"}
{"sequence-record": "YSSSKGSLRLCDARAAALCDKHSK", "label": "class 0"}

Q: State whether the measured protein stability index reaches 2, counting equality as reaching it, for `YSSSKGSLRLCDMRPAALCDKHSK`
Ans: class 1

Q: State whether the measured protein stability index reaches 2, counting equality as reaching it, for `YSSSKGSLRLCLMRAAALCDKHSK`
Ans: class 0

Q: State whether the measured protein stability index reaches 2, counting equality as reaching it, for `YSSSKGSLRLCDMRAAALCDKHDK`
Ans: class 0

Q: State whether the measured protein stability index reaches 2, counting equality as reaching it, for `YSSSKGSLRLCDMRAAALCDKHYK`
Ans: class 1
